# IC50 annotations
System: CNE cell line
Assay: solid tumor cell growth inhibition, MTT
Assay type: cell-based
Conditions: Homo sapiens, 72 h

[
  {
    "COMPOUND": "CN(C)CCCNC(=O)C1C[C@@]2(C)C(CC[C@]3(C)C2CC=C2C4CC(C)(C)CC[C@]4(C(=O)O)CC[C@]23C)C(C)(C)C1=O (stereo partly drawn) [BS-OA-109]",
    "OBSERVABLE": "IC50",
    "RESULT": "> 16 µg/mL"
  },
  {
    "COMPOUND": "COC(=O)[C@]12CCC(C)(C)CC1C1=CCC3[C@@]4(C)CC(C(=O)NCCCN5CCCC5)C(=O)C(C)(C)C4CC[C@@]3(C)[C@]1(C)CC2 (stereo partly drawn) [BS-OA-016]",
    "OBSERVABLE": "IC50",
    "RESULT": "4.07 µg/mL"
  },
  {
    "COMPOUND": "COC(=O)[C@]12CCC(C)(C)CC1C1=CCC3[C@@]4(C)CC(C(=O)NCCc5ccccn5)C(=O)C(C)(C)C4CC[C@@]3(C)[C@]1(C)CC2 (stereo partly drawn) [BS-OA-032]",
    "OBSERVABLE": "IC50",
    "RESULT": "> 16 µg/mL"
  },
  {
    "COMPOUND": "COC(=O)[C@]12CCC(C)(C)CC1C1=CCC3[C@@]4(C)CC(C(=O)NC5CC5)C(=O)C(C)(C)C4CC[C@@]3(C)[C@]1(C)CC2 (stereo partly drawn) [BS-OA-034]",
    "OBSERVABLE": "IC50",
    "RESULT": "> 16 µg/mL"
  },
  {
    "COMPOUND": "COC(=O)[C@]12CCC(C)(C)CC1C1=CCC3[C@@]4(C)CC(C(=O)NCCc5cccnc5)C(=O)C(C)(C)C4CC[C@@]3(C)[C@]1(C)CC2 (stereo partly drawn) [BS-OA-027]",
    "OBSERVABLE": "IC50",
    "RESULT": "15.6 µg/mL"
  }
]

Now consider the entry below.
IC50 of COC(=O)[C@]12CCC(C)(C)C[C@H]1C1=CC[C@@H]3[C@@]4(C)CC(C(=O)NCCN5CCOCC5)C(=O)C(C)(C)[C@@H]4CC[C@@]3(C)[C@]1(C)CC2 (stereo partly drawn) [BS-OA-059] , assay on CNE cell line, is > 16 µg/mL

---

System: NB4 cell line
Assay: leukemia cell growth inhibition, MTT
Format: cell-based
Settings: Homo sapiens, NB-4; NB4, 16 μg/mL compound, 72 h; read-out: IR (cell proliferation inhibition rate)
OBSERVABLE: inhibition at 16 µg/mL (%)
Give just the number in %; leave the unit off.

Recorded inhibition at 16 µg/mL, per entry:
[
  {
    "MOLECULE": "COC(=O)[C@]12CCC(C)(C)CC1C1=CCC3[C@@]4(C)CC(C(=O)NCCCN5CCCC5)C(=O)C(C)(C)C4CC[C@@]3(C)[C@]1(C)CC2 (stereo partly drawn)",
    "NUMERIC_VALUE": 99.8
  },
  {
    "MOLECULE": "CN(C)CCCNC(=O)C1C[C@@]2(C)C(CC[C@]3(C)C2CC=C2C4CC(C)(C)CC[C@]4(C(=O)O)CC[C@]23C)C(C)(C)C1=O (stereo partly drawn)",
    "NUMERIC_VALUE": 76.6
  }
]

Now consider the entry below.
// inhibition at 16 µg/mL lookup, molecule = CCN(CC)CCNC(=O)C1C[C@@]2(C)C(CC[C@]3(C)C2CC=C2C4CC(C)(C)CC[C@]4(C(=O)O)CC[C@]23C)C(C)(C)C1=O (stereo partly drawn) , result: 86.6

---

Tested on: PANC-1 cell line
Test: solid tumor cell growth inhibition, MTT
Type: cell-based
Details: Homo sapiens; PANC-1, 16 μg/mL compound, 72 h; read-out: IR (cell proliferation inhibition rate)
Is inhibition at 16 µg/mL at least 40%? Then yes (1). If not, no (0).

See these solved cases before continuing.
[
  {
    "COMPOUND": "CCN(CC)CCNC(=O)C1C[C@@]2(C)C(CC[C@]3(C)C2CC=C2C4CC(C)(C)CC[C@]4(C(=O)OC)CC[C@]23C)C(C)(C)C1=O (stereo partly drawn)",
    "ASSIGNED_LABEL": "yes (1)"
  },
  {
    "COMPOUND": "COC(=O)[C@]12CCC(C)(C)CC1C1=CCC3[C@@]4(C)CC(C(=O)NCCc5ccccn5)C(=O)C(C)(C)C4CC[C@@]3(C)[C@]1(C)CC2 (stereo partly drawn)",
    "ASSIGNED_LABEL": "no (0)"
  },
  {
    "COMPOUND": "CCC(C)CNC(=O)C1C[C@@]2(C)C(CC[C@]3(C)C2CC=C2C4CC(C)(C)CC[C@]4(C(=O)OC)CC[C@]23C)C(C)(C)C1=O (stereo partly drawn)",
    "ASSIGNED_LABEL": "no (0)"
  },
  {
    "COMPOUND": "CN(C)CCCNC(=O)C1C[C@@]2(C)C(CC[C@]3(C)C2CC=C2C4CC(C)(C)CC[C@]4(C(=O)O)CC[C@]23C)C(C)(C)C1=O (stereo partly drawn)",
    "ASSIGNED_LABEL": "no (0)"
  },
  {
    "COMPOUND": "COC(=O)[C@]12CCC(C)(C)CC1C1=CCC3[C@@]4(C)CC(C(=O)NCCCN(C)C)C(=O)C(C)(C)C4CC[C@@]3(C)[C@]1(C)CC2 (stereo partly drawn)",
    "ASSIGNED_LABEL": "yes (1)"
  }
]

For the next question, use this compound.
Query block: Check this compound for inhibition at 16 µg/mL at or above 40%: COC(=O)[C@]12CCC(C)(C)C[C@H]1C1=CC[C@@H]3[C@@]4(C)CC(C(=O)NCCN5CCCCC5)C(=O)C(C)(C)[C@@H]4CC[C@@]3(C)[C@]1(C)CC2 (stereo partly drawn)
Result block: yes (1)

---

# inhibition at 16 µg/mL annotations
System: NB4 cell line
Assay: leukemia cell growth inhibition, MTT
Assay type: cell-based
Settings: Homo sapiens, NB-4; NB4, 16 μg/mL compound, 72 h; read-out: IR (cell proliferation inhibition rate)
From the text: Leukemia cell lines: leukemia cell lines: K562/adr (drug-resistant, chronic myeloid leukemia, CML), NB4 (acute promyelocytic leukemia, AML), Kasumi-1 (acute myeloid leukemia M2 type, AML-M2), Jurkat (acute lymphoblastic leukemia, ALL), all of which are donated by Cancer Research Institute of Zhejiang University, China; and H9 (acute lymphoblastic leukemia, ALL), which is purchased from China Center for Type Culture Collection (CCTCC). […]
Give just the number in %; leave the unit off.

Recorded inhibition at 16 µg/mL, per entry:
[
  {
    "COMPOUND": "COC(=O)[C@]12CCC(C)(C)CC1C1=CCC3[C@@]4(C)CC(C(=O)NCCC(C)C)C(=O)C(C)(C)C4CC[C@@]3(C)[C@]1(C)CC2 (stereo partly drawn) [BS-OA-031]",
    "inhibition at 16 µg/mL, %": -0.9
  },
  {
    "COMPOUND": "CC1(C)CC[C@]2(C(=O)O)CC[C@]3(C)C(=CC[C@@H]4[C@@]5(C)CC[C@H](O)C(C)(C)[C@@H]5CC[C@]43C)[C@@H]2C1 [OA, Oleanolic acid]",
    "inhibition at 16 µg/mL, %": 17.2
  },
  {
    "COMPOUND": "CC1(C)CC[C@]2(C(=O)O)CC[C@]3(C)C(=CC[C@@H]4[C@@]5(C)CC(C(=O)NCCN6CCCC6)C(=O)C(C)(C)[C@@H]5CC[C@]43C)[C@@H]2C1 (stereo partly drawn) [BS-OA-105]",
    "inhibition at 16 µg/mL, %": 74.7
  },
  {
    "COMPOUND": "CCN(CC)CCCNC(=O)C1C[C@]2(C)[C@H]3CC=C4[C@@H]5CC(C)(C)CC[C@]5(C(=O)OC)CC[C@@]4(C)[C@]3(C)CC[C@H]2C(C)(C)C1=O (stereo partly drawn) [BS-OA-035]",
    "inhibition at 16 µg/mL, %": 99.8
  },
  {
    "COMPOUND": "CCC(C)CNC(=O)C1C[C@@]2(C)C(CC[C@]3(C)C2CC=C2C4CC(C)(C)CC[C@]4(C(=O)OC)CC[C@]23C)C(C)(C)C1=O (stereo partly drawn) [BS-OA-008]",
    "inhibition at 16 µg/mL, %": 6.3
  }
]

Now consider the entry below.
// inhibition at 16 µg/mL lookup, compound = COC(=O)[C@]12CCC(C)(C)CC1C1=CCC3[C@@]4(C)CC(C(=O)NCCc5ccccn5)C(=O)C(C)(C)C4CC[C@@]3(C)[C@]1(C)CC2 (stereo partly drawn) [BS-OA-032] , result: 85.2
